Species on record: Rattus norvegicus
test_summary: Open TG-GATES - Regimen: Single
Assay type: toxicity, organism-based, Sprague-Dawley
Parameters: regimen Single, gender Male, age 6 weeks
condition_context: in vivo, po, 300 mg/kg, 9 h, tissue Plasma, route gavage, dose level Middle
Readings of Ca for the listed compounds
attribute_measured: Ca (mg/dL)

| compound | unit | observed |
| --- | --- | --- |
| COC(=O)C1=C(C)NC(C)=C(C(=O)OC)C1c1ccccc1[N+](=O)[O-] [NIFEDIPINE] | mg/dL | 10.9 |
| CN/C(=N/CCSCc1nc[nH]c1C)NC#N [CIMETIDINE] | mg/dL | 10.3 |
| CNC(=C[N+](=O)[O-])NCCSCc1ccc(CN(C)C)o1 [RANITIDINE] | mg/dL | 10.5 |
| O=C(OC[C@H]1O[C@@H](OC(=O)c2cc(O)c(O)c(OC(=O)c3cc(O)c(O)c(O)c3)c2)[C@H](OC(=O)c2cc(O)c(O)c(OC(=O)c3cc(O)c(O)c(O)c3)c2)[C@@H](OC(=O)c2cc(O)c(O)c(OC(=O)c3cc(O)c(O)c(O)c3)c2)[C@@H]1OC(=O)c1cc(O)c(O)c(OC(=O)c2cc(O)c(O)c(O)c2)c1)c1cc(O)c(O)c(OC(=O)c2cc(O)c(O)c(O)c2)c1 [TANNIC ACID] | mg/dL | 10.4 |
| Cc1nnc2n1-c1ccc(Cl)cc1C(c1ccccc1Cl)=NC2 [TRIAZOLAM] | mg/dL | 11 |

###

Readings of Neu for the listed compounds
Species: Rattus norvegicus
test_summary: Open TG-GATES - Regimen: Daily Repeat
Assay type: toxicity, organism-based, Sprague-Dawley
Parameters: regimen Daily Repeat, gender Male, age 6 weeks
condition_context: in vivo, po, 1000 mg/kg, 72 h, tissue Blood, route gavage, dose level High, time 3 day
attribute_measured: Neu (%)

| compound | observed |
| --- | --- |
| CN/C(=N/CCSCc1nc[nH]c1C)NC#N | 14.8 |
| Cc1nnc2n1-c1ccc(Cl)cc1C(c1ccccc1Cl)=NC2 | 16 |
| CNC(=C[N+](=O)[O-])NCCSCc1ccc(CN(C)C)o1 | 16 |
| O=C(OC[C@H]1O[C@@H](OC(=O)c2cc(O)c(O)c(OC(=O)c3cc(O)c(O)c(O)c3)c2)[C@H](OC(=O)c2cc(O)c(O)c(OC(=O)c3cc(O)c(O)c(O)c3)c2)[C@@H](OC(=O)c2cc(O)c(O)c(OC(=O)c3cc(O)c(O)c(O)c3)c2)[C@@H]1OC(=O)c1cc(O)c(O)c(OC(=O)c2cc(O)c(O)c(O)c2)c1)c1cc(O)c(O)c(OC(=O)c2cc(O)c(O)c(O)c2)c1 | 20.6 |
| COC(=O)C1=C(C)NC(C)=C(C(=O)OC)C1c1ccccc1[N+](=O)[O-] | 18.2 |
| CCOc1ccc(NC(C)=O)cc1 | 26 |

###

Readings of Cl for the listed molecules
Organism: Rattus norvegicus
test_summary: Open TG-GATES - Regimen: Daily Repeat
Assay type: toxicity, organism-based, Sprague-Dawley
Design: regimen Daily Repeat, gender Male, age 6 weeks
condition_context: in vivo, po, 1000 mg/kg, […], tissue Plasma, route gavage, dose level High, time 7 day
attribute_measured: Cl

| compound | observed |
| --- | --- |
| CN/C(=N/CCSCc1nc[nH]c1C)NC#N | 101.8 meq/L |
| COC(=O)C1=C(C)NC(C)=C(C(=O)OC)C1c1ccccc1[N+](=O)[O-] | 105.8 meq/L |
| CNC(=C[N+](=O)[O-])NCCSCc1ccc(CN(C)C)o1 | 103.6 meq/L |
| O=C(OC[C@H]1O[C@@H](OC(=O)c2cc(O)c(O)c(OC(=O)c3cc(O)c(O)c(O)c3)c2)[C@H](OC(=O)c2cc(O)c(O)c(OC(=O)c3cc(O)c(O)c(O)c3)c2)[C@@H](OC(=O)c2cc(O)c(O)c(OC(=O)c3cc(O)c(O)c(O)c3)c2)[C@@H]1OC(=O)c1cc(O)c(O)c(OC(=O)c2cc(O)c(O)c(O)c2)c1)c1cc(O)c(O)c(OC(=O)c2cc(O)c(O)c(O)c2)c1 | 103.2 meq/L |
| CCOc1ccc(NC(C)=O)cc1 | 104.8 meq/L |
| Cc1nnc2n1-c1ccc(Cl)cc1C(c1ccccc1Cl)=NC2 | 105 meq/L |

###

Readings of TG for the listed molecules
Organism: Rattus norvegicus
test_summary: Open TG-GATES - Regimen: Daily Repeat
Format: toxicity, organism-based, Sprague-Dawley
Design: regimen Daily Repeat, gender Male, age 6 weeks
condition_context: in vivo, po, 300 mg/kg, 72 h, tissue Plasma, route gavage, dose level Middle, time 3 day
attribute_measured: TG (mg/dL)

| molecule | attribute_measured | unit | observed |
| --- | --- | --- | --- |
| CN/C(=N/CCSCc1nc[nH]c1C)NC#N [CIMETIDINE] | TG | mg/dL | 119.8 |
| CNC(=C[N+](=O)[O-])NCCSCc1ccc(CN(C)C)o1 [RANITIDINE] | TG | mg/dL | 80 |
| O=C(OC[C@H]1O[C@@H](OC(=O)c2cc(O)c(O)c(OC(=O)c3cc(O)c(O)c(O)c3)c2)[C@H](OC(=O)c2cc(O)c(O)c(OC(=O)c3cc(O)c(O)c(O)c3)c2)[C@@H](OC(=O)c2cc(O)c(O)c(OC(=O)c3cc(O)c(O)c(O)c3)c2)[C@@H]1OC(=O)c1cc(O)c(O)c(OC(=O)c2cc(O)c(O)c(O)c2)c1)c1cc(O)c(O)c(OC(=O)c2cc(O)c(O)c(O)c2)c1 [TANNIC ACID] | TG | mg/dL | 109.2 |
| Cc1nnc2n1-c1ccc(Cl)cc1C(c1ccccc1Cl)=NC2 [TRIAZOLAM] | TG | mg/dL | 82 |
| CCOc1ccc(NC(C)=O)cc1 [PHENACETIN] | TG | mg/dL | 145.4 |
| COC(=O)C1=C(C)NC(C)=C(C(=O)OC)C1c1ccccc1[N+](=O)[O-] [NIFEDIPINE] | TG | mg/dL | 94.2 |

###

Species: Rattus norvegicus
test_summary: Open TG-GATES - Regimen: Daily Repeat
Format: toxicity, organism-based, Sprague-Dawley
Design: regimen Daily Repeat, gender Male, age 6 weeks
condition_context: in vivo, po, 1000 mg/kg, […], tissue Plasma, route gavage, dose level High, time 7 day
# binarize TG: threshold 90 mg/dL inclusive, high side rule met, low side rule not met

| compound | label_value |
| --- | --- |
| CN/C(=N/CCSCc1nc[nH]c1C)NC#N [CIMETIDINE] | rule met |
| CNC(=C[N+](=O)[O-])NCCSCc1ccc(CN(C)C)o1 [RANITIDINE] | rule not met |
| CCOc1ccc(NC(C)=O)cc1 [PHENACETIN] | rule met |
| Cc1nnc2n1-c1ccc(Cl)cc1C(c1ccccc1Cl)=NC2 [TRIAZOLAM] | rule met |
| COC(=O)C1=C(C)NC(C)=C(C(=O)OC)C1c1ccccc1[N+](=O)[O-] [NIFEDIPINE] | rule not met |

###

Organism: Rattus norvegicus
test_summary: Open TG-GATES - Regimen: Daily Repeat
Assay type: toxicity, organism-based, Sprague-Dawley
Design: regimen Daily Repeat, gender Male, age 6 weeks
condition_context: in vivo, po, 0 mg/kg, 72 h, tissue Plasma, route gavage, dose level Control, time 3 day
Readings of ALP for the listed compounds

| compound | unit | ALP |
| --- | --- | --- |
| Cc1nnc2n1-c1ccc(Cl)cc1C(c1ccccc1Cl)=NC2 | IU/L | 1815 |
| O=C(OC[C@H]1O[C@@H](OC(=O)c2cc(O)c(O)c(OC(=O)c3cc(O)c(O)c(O)c3)c2)[C@H](OC(=O)c2cc(O)c(O)c(OC(=O)c3cc(O)c(O)c(O)c3)c2)[C@@H](OC(=O)c2cc(O)c(O)c(OC(=O)c3cc(O)c(O)c(O)c3)c2)[C@@H]1OC(=O)c1cc(O)c(O)c(OC(=O)c2cc(O)c(O)c(O)c2)c1)c1cc(O)c(O)c(OC(=O)c2cc(O)c(O)c(O)c2)c1 | IU/L | 883.4 |
| CN1C(=O)CCS(=O)(=O)C1c1ccc(Cl)cc1 (stereo not drawn) | IU/L | 1545.4 |
| CN(C)CCC(c1ccc(Cl)cc1)c1ccccn1 (stereo not drawn) | IU/L | 1824 |
| CNC(=C[N+](=O)[O-])NCCSCc1ccc(CN(C)C)o1 | IU/L | 924 |
| Brc1ccccc1 | IU/L | 1625.4 |
| CN/C(=N/CCSCc1nc[nH]c1C)NC#N | IU/L | 1069.6 |
| NC1=NC(=O)C(c2ccccc2)O1 (stereo not drawn) | IU/L | 1625 |
| Nc1c2c(nc3ccccc13)CCCC2 | IU/L | 1665.8 |
| CC(C)NNC(=O)c1ccncc1 | IU/L | 1294.6 |
| COC(=O)C1=C(C)NC(C)=C(C(=O)OC)C1c1ccccc1[N+](=O)[O-] | IU/L | 1654.8 |
| CCOc1ccc(NC(C)=O)cc1 | IU/L | 2120 |
| CCCc1cc(=O)[nH]c(=S)[nH]1 | IU/L | 904.6 |
